TARGET SYSTEM: UniProt:P17712
Sequence (P17712 whole entry): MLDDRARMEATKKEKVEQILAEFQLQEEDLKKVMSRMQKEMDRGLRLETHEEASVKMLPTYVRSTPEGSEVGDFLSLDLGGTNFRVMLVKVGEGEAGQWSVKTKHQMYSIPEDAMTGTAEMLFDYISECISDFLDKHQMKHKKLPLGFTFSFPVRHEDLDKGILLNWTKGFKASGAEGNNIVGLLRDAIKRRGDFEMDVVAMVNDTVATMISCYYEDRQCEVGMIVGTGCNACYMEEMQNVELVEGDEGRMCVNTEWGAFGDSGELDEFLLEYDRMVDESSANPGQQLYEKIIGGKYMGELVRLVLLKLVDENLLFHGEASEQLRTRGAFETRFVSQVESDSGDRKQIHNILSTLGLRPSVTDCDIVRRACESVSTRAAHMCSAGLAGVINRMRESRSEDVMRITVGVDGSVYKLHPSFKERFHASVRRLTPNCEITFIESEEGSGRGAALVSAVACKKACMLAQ
METHOD NOTES: Activation of glucokinase in rat INS1(832/13) cells assessed as increase in glucose sensitive insulin secretion at 20 uM after 2 hrs in presence of 5.5 mM glucose by AlphaLISA method relative to control
Assay type: cell-based
Activity calls are given as the source filed them. No cut-off for these calls is given here.
OBSERVATION TYPE: fold change (FC)

COCC(C)Oc1cc(Oc2cccc(S(C)(=O)=O)c2)cc(C(=O)Nc2nc3c(s2)CN(C(=O)OC(C)(C)C)CC3)c1 (centres undefined): 1.14
CC(C)(C)OC(=O)N1CCc2nc(NC(=O)c3cc(Oc4ccc(S(C)(=O)=O)cc4)cc(OC4CCCCC4)c3)sc2C1: inactive
CC(C)(C)OC(=O)N1CCc2nc(NC(=O)c3cc(Oc4ccc(S(C)(=O)=O)cc4)cc(OC4CCCC4)c3)sc2C1: inactive
COC[C@H](C)Oc1cc(Oc2ccc(C(=O)N3CCC3)cc2)cc(C(=O)Nc2nc3c(s2)CN(c2cc[nH]c(=O)c2)CC3)c1: 5.51

----------
Below, each entry is listed alongside its reported pEC50.
TARGET SYSTEM: Hexokinase-4 (Homo sapiens, UniProt P35557)
Sequence (P35557 whole entry): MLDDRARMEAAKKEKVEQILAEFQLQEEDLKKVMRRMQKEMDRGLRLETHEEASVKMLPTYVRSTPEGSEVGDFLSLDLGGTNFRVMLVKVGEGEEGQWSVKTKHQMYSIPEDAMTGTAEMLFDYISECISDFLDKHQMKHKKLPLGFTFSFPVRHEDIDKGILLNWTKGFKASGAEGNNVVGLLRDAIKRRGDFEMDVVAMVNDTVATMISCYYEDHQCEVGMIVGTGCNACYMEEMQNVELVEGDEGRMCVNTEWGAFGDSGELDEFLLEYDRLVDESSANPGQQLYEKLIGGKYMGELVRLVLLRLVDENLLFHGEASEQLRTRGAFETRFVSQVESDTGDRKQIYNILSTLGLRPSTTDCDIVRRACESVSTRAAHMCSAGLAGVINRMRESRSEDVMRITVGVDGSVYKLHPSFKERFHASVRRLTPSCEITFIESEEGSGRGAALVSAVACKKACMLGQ
METHOD NOTES: Activation of recombinant human liver glucokinase 2 assessed as […] in presence of 5 mM glucose by G6PDH coupled assay
A value of pEC50 is the negative decimal logarithm of a concentration given in moles per litre.

COC[C@H](C)Oc1cc(Oc2ccc(C(=O)N3CCC3)cc2)cc(C(=O)Nc2nc3c(s2)CN(c2cc[nH]c(=O)c2)CC3)c1: 6.52
COCC(C)Oc1cc(Oc2ccc(S(C)(=O)=O)cc2)cc(C(=O)Nc2nc3c(s2)CCC3)c1 (centres undefined): 7.00
COCC(C)Oc1cc(Oc2ccc(C(=O)N3CCC3)cc2)cc(C(=O)Nc2nc3c(s2)CN(C(=O)OC(C)(C)C)CC3)c1 (centres undefined): 6.54
COC[C@H](C)Oc1cc(Oc2cc(F)cc(F)c2)cc(C(=O)Nc2nc3c(s2)CN(C(=O)OC(C)(C)C)CC3)c1: 6.70
CCS(=O)(=O)c1ccc(Oc2cc(OC(C)COC)cc(C(=O)Nc3nc4c(s3)CN(C(=O)OC(C)(C)C)CC4)c2)cc1 (centres undefined): 6.85
CC(C)Oc1cc(Oc2ccc(S(C)(=O)=O)cc2)cc(C(=O)Nc2nc3c(s2)CN(C(=O)OC(C)(C)C)CC3)c1: 6.77
COC[C@H](C)Oc1cc(Oc2ccc(C(=O)N3CCC3)cc2)cc(C(=O)Nc2nc3c(s2)CN(c2ccccn2)CC3)c1: 6.54
CCN1CCc2nc(NC(=O)c3cc(Oc4ccc(S(C)(=O)=O)cc4)cc(OC(C)COC)c3)sc2C1 (centres undefined): 5.27

Consider the molecule COCC(C)Oc1cc(Oc2cccc(S(C)(=O)=O)c2)cc(C(=O)Nc2nc3c(s2)CN(C(=O)OC(C)(C)C)CC3)c1 (centres undefined) . State its measured pEC50. 6.09

Provide one value: measured pEC50 of COCC(C)Oc1cc(Oc2ccc(S(C)(=O)=O)cc2)cc(C(=O)Nc2nc3c(s2)CCCC3)c1 (centres undefined) 6.05

Answer with the recorded pEC50 of COCC(C)Oc1cc(Oc2ccc(S(=O)(=O)C3CC3)cc2)cc(C(=O)Nc2nc3c(s2)CN(C(=O)OC(C)(C)C)CC3)c1 (centres undefined) only. 6.64

Quickly give me recorded pEC50 for CC(C)(C)OC(=O)N1CCc2nc(NC(=O)c3cc(Oc4ccc(S(C)(=O)=O)cc4)cc(OC4CCCC4)c3)sc2C1 6.74

These entries and their values trace back to ChEMBL document CHEMBL4190311.
